The measurements presented in this section are drawn from PubChem BioAssay.

test: survival rescue of mitochondrial mutant cells in low glucose, primary screen, MELAS cybrids, Rieske KO mouse fibroblasts, CellTiter-Glo (AID 1508586); settings: MELAS cybrid survival, CellTiter-Glo 48 h, hits give high values;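 further: z relative to plate mean and SD of compound and empty wells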
measured attribute: z-score
Numbers only.

Example entries begin here.
{"columns": ["molecule", "z-score"],
 "data": [
  ["OC1(c2ccc(Cl)c(C(F)(F)F)c2)CCN(CCCC(c2ccc(F)cc2)c2ccc(F)cc2)CC1", -0.344],
  ["NCCc1ccn[nH]1", 0.417],
  ["C=CCN1C[C@H](C(=O)N(CCCN(C)C)C(=O)NCC)C[C@@H]2c3cccc4[nH]cc(c34)C[C@H]21", -0.306],
  ["CCOc1ccccc1OCCN[C@H](C)Cc1ccc(OC)c(S(N)(=O)=O)c1", -0.622],
  ["O=C(O)c1cc(=O)[nH]c(=O)[nH]1", -0.414]
]}

Could I get z-score for every one of these entries?
1. COc1ccc(-c2cc(=O)c3c(O)cc(O)cc3o2)cc1O
2. O=c1[nH]c(=O)c2[nH]c(=O)[nH]c2[nH]1
3. CC(=O)N1CCN(c2ccc(OCC3CO[C@](Cn4ccnc4)(c4ccc(Cl)cc4Cl)O3)cc2)CC1 (some centres undefined)
4. CC(=O)N(CC(O)CN(C(C)=O)c1c(I)c(C(=O)NCC(O)CO)c(I)c(C(=O)NCC(O)CO)c1I)c1c(I)c(C(=O)NCC(O)CO)c(I)c(C(=O)NCC(O)CO)c1I (centres undefined)
5. C[C@H](CCC(=O)O)[C@H]1CC[C@H]2[C@@H]3[C@@H](O)C[C@@H]4C[C@H](O)CC[C@]4(C)[C@H]3CC[C@]12C
6. CN(C(=O)C(Cl)Cl)c1ccc(OC(=O)c2ccco2)cc1
7. CCOCC(O)COc1ccc(NC(=O)CC[S+](C)C)cc1 (centres undefined)
8. O=c1cc(O)c(Cl)c[nH]1

[A]
[-0.264, 0.618, -0.501, 0.435, -0.323, 0.57, -0.246, -0.106]

For every record below, what is its z-score?
1. CN1[C@@H]2CC[C@H]1CC(OC(=O)[C@H](CO)c1ccccc1)C2 (some centres undefined)
2. Cc1ccc(-n2nc(C(C)(C)C)cc2NC(=O)Nc2ccc(OCCN3CCOCC3)c3ccccc23)cc1
3. CN(C/C=C/c1ccccc1)Cc1cccc2ccccc12
4. O=C(N/N=C/c1ccc([N+](=O)[O-])o1)c1ccc(O)cc1
5. Cc1nc(Nc2ncc(C(=O)Nc3c(C)cccc3Cl)s2)cc(N2CCN(CCO)CC2)n1

[A]
[-0.995, -0.536, -0.0397, -3.44, 4.95]

For each of the molecules below, note its z-score.
1. CN1CCCN(C(c2ccccc2)c2ccc(Cl)cc2)CC1 (centres undefined)
2. Nc1cccc2c1CN(C1CCC(=O)NC1=O)C2=O (centres undefined)
3. CN=C(NC#N)Nc1ccc(C2=NNC(=O)CC2C)cc1 (centres undefined)
4. Cc1ccc2c(c1)c1c3n2CCNC3CCC1 (centres undefined)

[A]
1. -0.68
2. -0.434
3. 0.199
4. 0.468

----------
assay: inhibition of endothelial tube formation, primary screen, imaging, VEGF stimulated, CD31 staining, tube area, NPC library (AID 1117340); details: VEGF-stimulated ADSC/ECFC co-culture, at 10 µM, hits give high values
measured attribute: tube area decrease (%)
One number for each entry, in %.

{"columns": ["compound", "measured attribute", "measurement units", "experimental result"],
 "data": [
  ["CC1=C(CC(=O)O)c2cc(F)ccc2/C1=C\\c1ccc(S(C)(=O)=O)cc1", "tube area decrease", "%", 7.6]
]}

Respectfully, I request tube area decrease for each entry included below.
1. COC(=O)C1=C(C)NC(C)=C(C(=O)OCCN2CCN(C(c3ccccc3)c3ccccc3)CC2)C1c1cccc([N+](=O)[O-])c1 (stereo not drawn)
2. Cc1c(C)c2c(c(C)c1O)CCC(C)(COc1ccc(CC3SC(=O)NC3=O)cc1)O2 (stereo not drawn)
3. O=C(CCCN1CCC(O)(c2ccc(Br)cc2)CC1)c1ccc(F)cc1
4. CC(=O)Oc1cc(C(F)(F)F)ccc1C(=O)O
5. CCCCc1ncc(/C=C(\Cc2cccs2)C(=O)O)n1Cc1ccc(C(=O)O)cc1

[A]
1: 106; 2: 99.4; 3: 24.2; 4: -1.7; 5: -11.7

For each listed entry, give its tube area decrease.
1. COc1cc(C(C)=O)ccc1OCCCN1CCC(c2noc3cc(F)ccc23)CC1
2. Oc1c(I)cc(Cl)c2cccnc12
3. CN/C(=C\[N+](=O)[O-])NCCSCc1ccc(CN(C)C)o1
4. CCN1C(=O)NC(c2ccccc2)C1=O (stereo not drawn)
5. CC(=O)Nc1c(I)c(NC(C)=O)c(I)c(C(=O)O)c1I
6. Cl/C(=C\n1cncn1)c1ccc(Cl)cc1Cl

[A]
1. 16.7
2. 110
3. 7
4. -23
5. -9.3
6. -2.8

Required: tube area decrease, one value per compound below.
1. O=c1[nH]c(=O)c2ccccc2o1
2. CCCCN(CCCC)CC(O)c1cc(Cl)cc2c1-c1ccc(Cl)cc1/C2=C/c1ccc(Cl)cc1 (stereo not drawn)
3. CC(C)(C)c1ccc(C(=O)CCCN2CCC(OC(c3ccccc3)c3ccccc3)CC2)cc1
4. COCC(=O)O[C@]1(CCN(C)CCCc2nc3ccccc3[nH]2)CCc2cc(F)ccc2[C@@H]1C(C)C

[A]
1: 10.2; 2: 25.1; 3: 102; 4: 67.6
